# procedure-summary: Human HepG2 cell viability assay in 384 well format
# Type: toxicity, cell-based
# Set-up: dose 125 nL, time 70.5 hour; concentration not given beside the values
# measurement-context: HepG2 cells, read-out: Inhibition

compound | unit-string | cytotoxicity at 70.5 h
CS(=O)(=O)NCc1nnc2n1CCN(Cc1ccc(F)cc1)C2 | % | -3.88
Fc1cccc(Cl)c1CNCc1ccccn1 | % | -12.6
COc1nonc1NCn1nc(C)cc1C | % | 51.2
Cc1nc(CNC(=O)Nc2c(C)n[nH]c2C)cs1 | % | -9.25
COc1ccc(S(=O)(=O)NCCCc2ccc(N(C)C)cc2)cc1F | % | -1.57
CNC(=O)N1CCC2(CC1)c1ncc(C)n1CCN2C | % | -0.582
CCN1CCN(Cc2nc(C)no2)CC1 | % | 12.7
CCn1cc(S(=O)(=O)NCC2(N3CCOCC3)CCCCC2)c(C)n1 | % | 28.1
CCN(C(=O)CCc1ccc2c(c1)OCO2)C1CC(=O)NC1=O (configuration not stated) | % | 6.1
CSc1nccc(N2CCN(C)C3(CCC(=O)N(CC4CC4)CC3)C2)n1 (configuration not stated) | % | 1.61
O=C1C(n2nnc(-c3cccs3)n2)CCN1CC(F)(F)F (configuration not stated) | % | -7.6
O=C(Cn1cccn1)NCC1CCN(Cc2cc3ccccc3[nH]2)C1 (configuration not stated) | % | -14.4

====

# procedure-summary: Human HepG2 cell viability assay in 384 well format
# Type: toxicity, cell-based
# Set-up: dose 125 nL, time 70.5 hour; concentration not given beside the values
# measurement-context: HepG2 cells, read-out: Inhibition
endpoint: cytotoxicity at 70.5 h (%)

compound | endpoint | reported
Cc1noc(NS(=O)(=O)c2ccc(Cl)s2)c1C | cytotoxicity at 70.5 h | -0.524
CCN(Cc1nc(-c2ccco2)no1)Cc1cccc2c1OCO2 | cytotoxicity at 70.5 h | -3.24
CC1(C(=O)N2CCN(C3CCCC3)CC2)CNCCO1 (stereo not drawn) | cytotoxicity at 70.5 h | -7.45
COc1ncccc1NC(=O)C1CC1 | cytotoxicity at 70.5 h | -1.48
Cc1nc(C(NC(=O)C2CCCC2)c2ccccc2F)no1 (stereo not drawn) | cytotoxicity at 70.5 h | -9.04
CN(C)CCN1C(=O)C[C@@H]2[C@@H]1CCN2S(=O)(=O)c1ccccc1 | cytotoxicity at 70.5 h | -12.7
CN1CCCN(c2nccc(-c3c[nH]c4ccc(Br)cc34)n2)CC1 | cytotoxicity at 70.5 h | 9.19
COc1ccc(C(C)Nc2ncc(C(N)=O)cc2Cl)cc1F (stereo not drawn) | cytotoxicity at 70.5 h | -10.7
N#Cc1cccc(NS(=O)(=O)c2ccc(C(=O)O)cc2F)c1 | cytotoxicity at 70.5 h | -13.8
CC(c1ccco1)N(C(=O)CNc1ccc(C#N)cc1)C1CC1 (stereo not drawn) | cytotoxicity at 70.5 h | 4.38
O=C(O)c1ccc(S(=O)(=O)Nc2cnn(CC(F)(F)F)c2)cc1 | cytotoxicity at 70.5 h | 3.28
CCc1ccc(C(=O)N2CCC(Nc3ccc(C)nn3)CC2)o1 | cytotoxicity at 70.5 h | -4.81
COC(=O)[C@H]1C[C@@H](O)CCN1S(=O)(=O)c1cc(C)c(Cl)cc1C | cytotoxicity at 70.5 h | 0.229
Cc1ccccc1N1CCN(C(=O)CC(C)C)CC1 | cytotoxicity at 70.5 h | 0.0324
Cc1cc(C(=O)N2C[C@H]3CC[C@@H]2CN(Cc2ccccn2)C3)nc(C)n1 | cytotoxicity at 70.5 h | -0.674
CCCc1nnc([C@H]2CCN(Cc3ncc[nH]3)C2)o1 | cytotoxicity at 70.5 h | -1.6
CC(=O)NCC1CCN(c2cc(C(C)C)nc3ccnn23)CC1 | cytotoxicity at 70.5 h | -9.59
FC(F)Oc1ccc(CN2CCOC3(CCOCC3)C2)cc1Cl | cytotoxicity at 70.5 h | 1.46
Cc1nc(CN2CCCN(C(=O)CC(C)n3cccc3)CC2)cs1 (stereo not drawn) | cytotoxicity at 70.5 h | -12.7
Cc1nccnc1-n1c(COCC(=O)O)nc2c(C)cccc21 | cytotoxicity at 70.5 h | -1.07
O=C(Nc1cnn(CCN2CCOCC2)c1)c1ccccc1O | cytotoxicity at 70.5 h | 0.705
COCC(=O)N1CCC2(CC1)COCCN2Cc1ccc(F)cc1 | cytotoxicity at 70.5 h | -11.6
Cc1cc(C(=O)NCCN2CCCC(C)C2)nn1C (stereo not drawn) | cytotoxicity at 70.5 h | -5.9
CSc1ccc(NC(=O)COCc2ccccc2)nc1 | cytotoxicity at 70.5 h | 15
Cc1cc(N2CCCC2c2nnc3n2CCCCC3)nc(C)n1 (stereo not drawn) | cytotoxicity at 70.5 h | -3.38
CNS(=O)(=O)c1ccc(CNC(=O)Nc2cn[nH]c2)cc1 | cytotoxicity at 70.5 h | -5.63
CC(C)OCCOCC(O)CN(C)C(=O)Nc1ccc(F)cc1Cl (stereo not drawn) | cytotoxicity at 70.5 h | -2.75
CCNc1ncc(C(=O)N2CCOC(CCCc3ccccc3)C2)cn1 (stereo not drawn) | cytotoxicity at 70.5 h | 14.5
Cc1ccnc(NC(=O)CCNC(=O)c2ccccc2Cl)c1 | cytotoxicity at 70.5 h | -1.99
Cc1cccc(C(=O)N2CCSCC2)c1NC(=O)c1ccsc1 | cytotoxicity at 70.5 h | -8.36
CCc1nc(CN2CCc3c(ncn3C3CC3)C2)cs1 | cytotoxicity at 70.5 h | -17
CC(C)N(C)Cc1nnc2n1CCN(S(=O)(=O)C1CC1)CC2 | cytotoxicity at 70.5 h | -0.847
Cc1cc(C)nc(Nc2cc(C3CCCN(C)C3)nc(C)n2)n1 (stereo not drawn) | cytotoxicity at 70.5 h | -27.7
Cc1noc(C)c1C(=O)N1CCOC2(COCCN(C(C)C)C2)C1 (stereo not drawn) | cytotoxicity at 70.5 h | -1.02
CN(C)S(=O)(=O)N1CC[C@]2(C[C@@H](Oc3cccnc3)CO2)C1 | cytotoxicity at 70.5 h | -5.96
CS(=O)(=O)Nc1ccn(Cc2ccc(F)cc2Cl)n1 | cytotoxicity at 70.5 h | -12.3
CC(NC(N)=O)C(=O)NCc1cc(Br)ccc1F (stereo not drawn) | cytotoxicity at 70.5 h | -7.15
CC(NC(=O)NCCCN(C)S(C)(=O)=O)c1ccc(F)cc1 (stereo not drawn) | cytotoxicity at 70.5 h | 16.8
CNC(=O)C1(c2cnccn2)CCCN1C(=O)c1ncccc1C (stereo not drawn) | cytotoxicity at 70.5 h | -5.43
Cc1ccoc1C(=O)N1C[C@H]2CCC[C@@]2(COCc2ccncc2)C1 | cytotoxicity at 70.5 h | 5.44
COCCN1C[C@H]2CN(C(=O)NC(C)C)CCN2C1=O | cytotoxicity at 70.5 h | -3.98
Cc1cc(C)n(CC(C)Nc2nc(C)nc3c2CCNC3)n1 (stereo not drawn) | cytotoxicity at 70.5 h | -8.55
CCc1cc(C(=O)N2CCc3nc4c(C)csc4c(=O)n3CC2)on1 | cytotoxicity at 70.5 h | 20.2
O=C1CO[C@H]2CN(Cc3ccc(F)c(F)c3)C[C@H]2N1 | cytotoxicity at 70.5 h | -12.7
Cn1ncc2c(=O)[nH]c(CN3CCCC3c3ccsc3)nc21 (stereo not drawn) | cytotoxicity at 70.5 h | -7.44
c1cc(N2CCSCC2)ccc1CNc1cncc2nnnn12 | cytotoxicity at 70.5 h | -12.4
Cc1cccc(CN2CC3C[C@]3(NC(=O)c3ccco3)C2)n1 (stereo partly drawn) | cytotoxicity at 70.5 h | -4.13
CC(C)CCC(=O)NCCc1ccn(-c2ccccc2)n1 | cytotoxicity at 70.5 h | -5.88

====

# procedure-summary: Human HepG2 cell viability assay in 384 well format
# Assay type: toxicity, cell-based
# Design: dose 125 nL, time 70.5 hour; concentration not given beside the values
# measurement-context: HepG2 cells, read-out: Inhibition
endpoint: cytotoxicity at 70.5 h (%)

compound | reported
CN1C[C@H](c2ccccc2)[C@H]2CN(C(=O)Cc3ccc(O)cc3)CC[C@H]21 | 22.7
CC(C)N(CCO)C(=O)c1cc(COc2ccc3c(c2)CCCC3)on1 | -10.1
COCCN(CC(N)=O)CC1CCCN(C2Cc3ccccc3C2)C1 (configuration not stated) | 7.41
O=C1NC2(CCN(Cc3cccs3)CC2)CC1c1ccncc1 (configuration not stated) | 10.2
CCc1nnc2n1CCN(C(=O)COCCc1ccccc1)C2 | -14.7
Cc1nnsc1-c1nnc2sc(C(C)C)nn12 | 3.22
CC(C)Cc1n[nH]c(C2CC(=O)N(CC(C)C)C2)n1 (configuration not stated) | -5.1
COc1ccc(NC(=O)N2CCCC2c2ccco2)c(OC)c1 (configuration not stated) | 10.8
NC(=O)c1csc(N2CCCC(c3nc4ccccc4[nH]3)C2)n1 (configuration not stated) | -2.59
COCC(=O)N(Cc1ccc2[nH]ccc2c1)C1CC1 | -25.2
Cn1cc(C(=O)CC2CCCN2C(=O)c2c[nH]c3ccccc23)cn1 (configuration not stated) | -13.9
CC(C)C(=O)N1CCN(CCOc2cccc(C#N)c2)CC1 | -5.29
CC(=O)Nc1c(C)cnn1Cc1cc(F)ccc1F | -2.07
CC(C)n1cc(CN2CCCN(C(=O)CC3CCCO3)CC2)cn1 (configuration not stated) | -4.54
CC(C)c1csc(C2CCCN(C(=O)c3ccc(=O)n(C)n3)C2)n1 (configuration not stated) | 1.7
O=C(CC1CC1)N[C@@H]1CN(Cc2ccco2)C[C@@H]2CCCO[C@@H]21 | -2.26
O=C1c2cccnc2OC(CN2CCOCC2)CN1Cc1cccs1 (configuration not stated) | -4.39
Fc1cccc(CN2C[C@@H]3CN(Cc4ccccn4)C[C@@H]3C2)c1 | -5.09
O=C(CC1CC1)N1CCc2ncc(Cn3cncn3)n2CC1 | -14.1
O=C(Cc1cccc(F)c1)N1C[C@H]2CN(Cc3ccccn3)C[C@H]2C1 | -6.98
CCn1cc(NC(=O)NCc2ccc3c(c2)OCCO3)cn1 | -13
O=C1C(NCc2cccc(O)c2)CCN1Cc1ccccc1 (configuration not stated) | -0.773
CCN(C)c1ncnc2c1CCN(C(=O)NCc1cccnc1)CC2 | 0.595
CCc1nnsc1C(=O)N1CCCC(n2ccnc2C(C)C)C1 (configuration not stated) | -5.12
O=C(O)c1ccc2[nH]cc(CN3CCOCC3)c2c1 | 2.68
Cc1ccc(SC2CCCC2)c(C(=O)NCCc2n[nH]c(=O)[nH]2)c1 | 2.84
CCN1C(=O)C(C#N)=C(C)/C(=C/C2=Cc3ccccc3OC2)C1=O | 7.28
COc1cc(C)ccc1OCCN1CC[C@@]2(O)CCNC[C@H]2C1 | -4.21
CC1(C)CN(C(=O)c2cc(F)cc3[nH]cnc23)CCS1 | -11
O=C(c1ccnn1-c1ccc2ccccn12)N1CCCC1 | -10.6
CNC(=O)c1cc2c(nc1N(C)C)CCN(C)CC2 | -2.14
O=C1CC2(CCN(c3nccc(-c4cc(C(=O)O)ccn4)n3)CC2)CN1 | -8.17
CCc1csc(CNC(=O)C(CC)n2cccn2)n1 (configuration not stated) | -2.46
Cn1cc(C(=O)N2CCCC2c2ccc3c(c2)OCO3)ccc1=O (configuration not stated) | -1.44
COc1ccc2c(c1)C(=O)N(C)C1(CCN(CC=C(C)C)CC1)N2 | -2.27
Cc1cnc(-c2nc(O)c3c(n2)CN(C(=O)C2CCCO2)CC3)cn1 (configuration not stated) | -1.18
COc1ccccc1N1CCN(C(=O)CSC(C)C)C(C)C1 (configuration not stated) | -3.04
CC(C)CCC(=O)N1C[C@H]2CCN[C@H]2C1 | -3.29
CNc1cc(C(=O)N2CCCCC2CCn2ccnc2C)ccn1 (configuration not stated) | -2.8
COc1ccc(-n2c(CCC(=O)O)nc3ccccc32)cc1CO | 4.28
Cc1ccc2c(c1)C(NCc1nccn1Cc1ccccc1)CCCO2 (configuration not stated) | -13.4
N#Cc1ccccc1OCCN1CCCC(c2noc(C3CC3)n2)C1 (configuration not stated) | 3.57
CC(NC(=O)c1cccs1)C(=O)NCc1ccccn1 (configuration not stated) | -2.68
Cc1ccc(C(=O)N2CCC[C@@H]2Cn2nnc3c(O)nc(C)nc32)cc1 | -2.37
CN(C)c1cc2c(nn1)CCN(C(=O)c1cc3c(s1)CCOC3)C2 | -15.2
CNS(=O)(=O)CC(=O)NCc1cc2c(s1)CCCCC2 | -1.17
Cn1cc(C(=O)N2CCCC(c3ncc[nH]3)C2)cn1 (configuration not stated) | -7.17
